- test.target: PPAR-alpha (UniProt Q07869)
- Sequence (Q07869 1-468): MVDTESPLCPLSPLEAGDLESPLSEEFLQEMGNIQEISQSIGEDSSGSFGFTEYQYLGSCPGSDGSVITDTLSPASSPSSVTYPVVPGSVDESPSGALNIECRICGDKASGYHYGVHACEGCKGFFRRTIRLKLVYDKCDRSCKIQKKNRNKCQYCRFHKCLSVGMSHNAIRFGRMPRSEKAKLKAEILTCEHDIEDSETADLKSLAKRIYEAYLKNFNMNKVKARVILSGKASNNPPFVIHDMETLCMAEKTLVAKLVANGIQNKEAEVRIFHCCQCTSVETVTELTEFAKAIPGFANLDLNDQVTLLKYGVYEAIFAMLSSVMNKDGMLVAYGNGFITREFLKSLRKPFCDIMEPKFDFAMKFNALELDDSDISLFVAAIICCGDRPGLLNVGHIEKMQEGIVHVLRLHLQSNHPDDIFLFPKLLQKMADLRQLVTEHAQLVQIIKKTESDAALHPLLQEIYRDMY
- measurement.protocol: PPAR-alpha transactivation assay (GAL4 chimera, luciferase reporter) in CV-1 cells
- setup.conditions: GAL4-PPAR LBD chimera
pEC50: −log10 of the molar value.
The reader will find reported pEC50 values listed item by item below.

Look over these answered cases.
molecule: C[C@@H]1CN(Cc2ccc(OC(F)(F)F)cc2)C[C@H](C)N1S(=O)(=O)c1cccc2c1CC(C(=O)O)C2 (single isomer, unassigned) [Example 140]
pEC50: < 4.00
--
molecule: C[C@@H]1CN(c2ccc(C(F)(F)F)cn2)C[C@H](C)N1S(=O)(=O)c1cccc2c1CC(C(=O)O)C2 (stereo partly drawn) [Example 77]
pEC50: < 4.00

// switching to the query molecule
Tell me the measured pEC50 of C[C@@H]1CN(c2ccc(OC(F)(F)F)cc2)C[C@H](C)N1S(=O)(=O)c1ccc2ccn(CC(=O)O)c2c1 [Example 88] , please.
< 4.00

====

- test.target: UniProt Q07869
- measurement.protocol: PPAR-alpha transactivation assay (GAL4 chimera, luciferase reporter) in CV-1 cells
- setup.conditions: GAL4-PPAR LBD chimera
The reader will find reported EC50 values listed item by item below.

Look over these answered cases.
compound: O=C(O)Cc1csc2ccc(S(=O)(=O)N3CCN(c4ccc(C(F)(F)F)cc4F)CC3)cc12
EC50: < 5 µM

compound: O=C(O)Cn1ccc2ccc(S(=O)(=O)N3CCN(c4ccc(C(F)(F)F)cn4)CC3)cc21
EC50: 5 to 100 µM

compound: C[C@@H]1CN(c2ccc(C(F)(F)F)c(Br)c2)C[C@H](C)N1S(=O)(=O)c1cccc2c1CC(C(=O)O)C2 (stereo partly drawn)
EC50: > 100 µM

compound: O=C(O)CC1Cc2ccc(S(=O)(=O)N3CCN(c4ccc(C(F)(F)F)cc4)CC3)cc2C1 (stereo not drawn)
EC50: 5 to 100 µM

Hi! What's the reported EC50 for "O=C(O)Cc1csc2ccc(S(=O)(=O)N3CCN(c4ccc(C(F)(F)F)cn4)CC3)cc12" on UniProt Q07869?
5 to 100 µM

Hi! What's the reported EC50 for O=C(O)C1Cc2cccc(S(=O)(=O)N3CCN(c4cccc(OCC(F)(F)F)c4)CC3)c2C1 (stereo not drawn) on UniProt Q07869?
5 to 100 µM

Hi! What's the reported EC50 for C[C@@H]1CN(c2ccc(C(F)(F)F)c(F)c2)C[C@H](C)N1S(=O)(=O)c1ccc2c(c1)C(C(=O)O)CC2 (stereo partly drawn) on UniProt Q07869?
< 5 µM

Hi! What's the reported EC50 for "C[C@@H]1CN(c2ccc(C(F)(F)F)cn2)C[C@H](C)N1S(=O)(=O)c1ccc2scc(CC(=O)O)c2c1" on UniProt Q07869?
> 100 µM

====

- test.target: PPAR-gamma (UniProt P37231)
- measurement.protocol: PPAR-gamma transactivation assay (GAL4 chimera, luciferase reporter) in CV-1 cells
- setup.conditions: GAL4-PPAR LBD chimera
readout.name: EC50

Look over these answered cases.
compound: C[C@@H]1CN(c2ccc(C(F)(F)F)cn2)C[C@H](C)N1S(=O)(=O)c1ccc2c(c1)C(C(=O)O)CC2 (single isomer, unassigned) [Example 76]
EC50: > 100 µM
//
compound: O=C(O)C1CCc2ccc(S(=O)(=O)N3CCN(c4ccc(C(F)(F)F)c(F)c4)CC3)cc21 (centres unmarked) [Example 26]
EC50: < 5 µM
//
compound: O=C(O)Cn1ccc2cc(Br)c(S(=O)(=O)N3CCN(c4ccc(C(F)(F)F)cn4)CC3)cc21 [Example 33]
EC50: 5 to 100 µM
//
compound: C[C@@H]1CN(c2ccc(C(F)(F)F)c(Cl)c2)C[C@H](C)N1S(=O)(=O)c1cccc2c1CC(C(=O)O)C2 (single isomer, unassigned) [Example 139]
EC50: > 100 µM
//
compound: COc1cc2c(cc1S(=O)(=O)N1CCN(c3ccc(C(F)(F)F)cc3)CC1)CCC2CC(=O)O (centres unmarked) [Example 29]
EC50: 5 to 100 µM
//
compound: C[C@@H]1CN(c2ccc(C(F)(F)F)c(F)c2)C[C@H](C)N1S(=O)(=O)c1ccc2c(c1)C(C(=O)O)CC2 (some centres unmarked) [Example 70]
EC50: 5 to 100 µM
//
compound: CCC1CN(c2ccc(Cl)c(Cl)c2)CCN1S(=O)(=O)c1ccc2c(c1)C(C(=O)O)CC2 (centres unmarked) [Example 58]
EC50: 5 to 100 µM
//
compound: C[C@@H]1CN(Cc2ccc(OC(F)(F)F)cc2)C[C@H](C)N1S(=O)(=O)c1ccc2scc(CC(=O)O)c2c1 [Example 110]
EC50: 5 to 100 µM

Tell me the measured EC50 of C[C@@H]1CN(c2ccc(C(F)(F)F)cc2)C[C@H](C)N1S(=O)(=O)c1ccc2c(c1)C(C(=O)O)CC2 (some centres unmarked) [Example 104] , please.
5 to 100 µM

Tell me the measured EC50 of C[C@@H]1CN(c2ccc(C(F)(F)F)cn2)C[C@H](C)N1S(=O)(=O)c1ccc2scc(CC(=O)O)c2c1 [Example 43] , please.
5 to 100 µM

Tell me the measured EC50 of CC1(C(=O)O)Cc2cccc(S(=O)(=O)N3CCN(c4ccc(C(F)(F)F)cn4)CC3)c2C1 (centres unmarked) [Example 14] , please.
5 to 100 µM

Tell me the measured EC50 of O=C(O)C1CCc2ccc(S(=O)(=O)N3CCN(c4ccc(C(F)(F)F)cn4)CC3)cc21 (centres unmarked) [Example 20] , please.
< 5 µM

Tell me the measured EC50 of O=C(O)C1CCc2ccc(S(=O)(=O)N3CC=C(c4ccc(C(F)(F)F)cn4)CC3)cc21 (centres unmarked) [Example 66] , please.
5 to 100 µM

Tell me the measured EC50 of O=C(O)Cc1csc2ccc(S(=O)(=O)N3CCN(c4ccc(C(F)(F)F)c(F)c4)CC3)cc12 [Example 48] , please.
< 5 µM

====

- test.target: PPAR-gamma (UniProt P37231)
- measurement.protocol: PPAR-gamma transactivation assay (GAL4 chimera, luciferase reporter) in CV-1 cells
- setup.conditions: GAL4-PPAR LBD chimera
The reader will find reported EC50 values listed item by item below.

compound: O=C(O)C1Cc2ccc(S(=O)(=O)N3CC=C(c4ccc(C(F)(F)F)cc4)CC3)cc2C1 (stereo not drawn) [Example 17]
EC50: 5 to 100 µM

compound: Cc1cc(N2C[C@@H](C)N(S(=O)(=O)c3cccc4c3CC(C(=O)O)C4)[C@@H](C)C2)ccc1Cl (stereo partly drawn) [Example 135]
EC50: > 100 µM

compound: O=C(O)Cn1ccc2ccc(S(=O)(=O)N3CCN(c4ccc(OC(F)(F)F)cc4)CC3)cc21 [Example 90]
EC50: 5 to 100 µM

compound: C[C@@H]1CN(c2ccc(C(F)(F)F)cn2)C[C@H](C)N1S(=O)(=O)c1cccc2c1CC(C(=O)O)C2 (stereo partly drawn) [Example 77]
EC50: > 100 µM

compound: C[C@@H]1CN(c2ccc(Cl)c(F)c2)C[C@H](C)N1S(=O)(=O)c1cccc2c1CC(C(=O)O)C2 (stereo partly drawn) [Example 132]
EC50: > 100 µM

Tell me the measured EC50 of C[C@@H]1CN(c2ccc(Cl)c(OC(F)(F)F)c2)C[C@H](C)N1S(=O)(=O)c1cccc2c1CC(C(=O)O)C2 (stereo partly drawn) [Example 131] , please.
> 100 µM

Tell me the measured EC50 of C[C@@H]1CN(c2ccc(Cl)cc2)C[C@H](C)N1S(=O)(=O)c1cccc2c1CC(C(=O)O)C2 (stereo partly drawn) [Example 126] , please.
> 100 µM

Tell me the measured EC50 of O=C(O)C1Cc2cccc(S(=O)(=O)N3CCN(c4ccc(Cl)cc4)CC3)c2C1 (stereo not drawn) [Example 92] , please.
5 to 100 µM

Tell me the measured EC50 of C[C@@H]1CN(c2ccc(OC(F)(F)F)cc2)C[C@H](C)N1S(=O)(=O)c1ccc2ccn(CC(=O)O)c2c1 [Example 88] , please.
5 to 100 µM
